- Format: in vitro ADME, Rat
- experimental conditions: Rat
*1 amine or outer side, *2 acyl side, *3 side chain or, on linkers, in order; H or OH if unused. Where a SMILES comes first, the peptide text is derived from it. [ ]: non-standard residue; d: D form. ξ: configuration not given here. X3 = C#CCOc1ccc([C@@H](OC)[C@H](N[*:1])C(=O)[*:2])cc1; ξNMeTrp(1-Me) = CNC(Cc1cn(C)c2ccccc12)C(=O)O; X8 = CC(CO)C[C@@H](C(=O)[*:2])N(C)[*:1]; NMeL = CN[C@@H](CC(C)C)C(=O)O; ξV = CC(C)C(N)C(=O)O
property name: Hepatocyte Stability Rat QH (%)
Lab book: enter the figure in %, no units written.

// known answers, use as guide
compound	unit string	Hepatocyte Stability Rat QH
CO[C@H](c1ccccc1)[C@@H]1NC(=O)[C@H](C)NC(=O)[C@H](C[C@@H](C)CO)N(C)C(=O)[C@H](Cc2cn(Cc3cn(CCCCCn4cc(Cn5cc(C[C@H]6C(=O)N(C)[C@@H](C[C@@H](C)CO)C(=O)N[C@@H](C)C(=O)N[C@@H]([C@H](OC)c7ccccc7)C(=O)N[C@@H](C(C)C)C(=O)N(C)[C@@H](CC(C)C)C(=O)N[C@@H](C(C)C)C(=O)N6C)c6ccccc65)nn4)nn3)c3ccccc23)N(C)C(=O)[C@H](C(C)C)NC(=O)[C@H](CC(C)C)N(C)C(=O)[C@H](C(C)C)NC1=O [SI-57]	%	8.056
C#CCOc1ccc([C@@H](OC)[C@@H]2NC(=O)[C@@H](C)NC(=O)[C@H](CC(C)CO)N(C)C(=O)C(Cc3cn(C)c4ccccc34)N(C)C(=O)C(C(C)C)NC(=O)[C@H](CC(C)C)N(C)C(=O)[C@@H](C(C)C)NC2=O)cc1 (stereo partly drawn) [SI-64] (cyclo([NMeL][ξV][ξNMeTrp(1-Me)][X8][dA][X3][dV]))	%	49.748
CCCCCn1cc(C[C@@H]2NC(=O)[C@H](CC(C)C)N(C)C(=O)[C@H](C(C)C)NC(=O)[C@H]([C@H](OC)c3ccccc3)NC(=O)[C@H](C)NC(=O)[C@H](C[C@@H](C)CO)N(C)C(=O)[C@H](Cc3cn(C)c4ccccc34)NC2=O)nn1 [Compound 24]	%	33.303
CO[C@H](c1ccccc1)[C@@H]1NC(=O)[C@H](C)NC(=O)[C@H](C[C@@H](C)CO)N(C)C(=O)[C@H](Cc2cn(C)c3ccccc23)N(C)C(=O)[C@H](Cc2cn(CCCCCn3cc(C[C@@H]4NC(=O)[C@H](CC(C)C)N(C)C(=O)[C@H](C(C)C)NC(=O)[C@H]([C@H](OC)c5ccccc5)NC(=O)[C@H](C)NC(=O)[C@H](C[C@@H](C)CO)N(C)C(=O)[C@H](Cc5cn(C)c6ccccc56)N(C)C4=O)nn3)nn2)NC(=O)[C@H](CC(C)C)N(C)C(=O)[C@H](C(C)C)NC1=O [Compound 22]	%	9.923
CO[C@H](c1ccc(OCc2cn(CCCCCn3cc(COc4ccc([C@@H](OC)[C@@H]5NC(=O)[C@H](C)NC(=O)[C@H](C[C@@H](C)CO)N(C)C(=O)[C@H](Cc6cn(C)c7ccccc67)N(C)C(=O)[C@H](C(C)C)NC(=O)[C@H](CC(C)C)N(C)C(=O)[C@H](C(C)C)NC5=O)cc4)nn3)nn2)cc1)[C@@H]1NC(=O)[C@H](C)NC(=O)[C@H](C[C@@H](C)CO)N(C)C(=O)[C@H](Cc2cn(C)c3ccccc23)N(C)C(=O)[C@H](C(C)C)NC(=O)[C@H](CC(C)C)N(C)C(=O)[C@H](C(C)C)NC1=O [SI-66]	%	9.964

--- query ---
-- ask Given the compound CO[C@H](c1ccc(OCc2cn(CCCCCn3cc(COc4ccc([C@@H](OC)[C@@H]5NC(=O)[C@H](C)NC(=O)[C@H](C[C@@H](C)CO)N(C)C(=O)[C@H](Cc6cn(C)c7ccccc67)NC(=O)[C@H](C(C)C)NC(=O)[C@H](CC(C)C)N(C)C(=O)[C@H](C(C)C)NC5=O)cc4)nn3)nn2)cc1)[C@@H]1NC(=O)[C@H](C)NC(=O)[C@H](C[C@@H](C)CO)N(C)C(=O)[C@H](Cc2cn(C)c3ccccc23)NC(=O)[C@H](C(C)C)NC(=O)[C@H](CC(C)C)N(C)C(=O)[C@H](C(C)C)NC1=O [SI-40] , what is its reported Hepatocyte Stability Rat QH?
-- reply 11.911

---

- system: ClpC1-NTD substrate, M. tuberculosis ClpC1P1P2 (Mycobacterium tuberculosis, UniProt P9WPC9)
- procedure summary: biochemical
- Format: biochemical
- experimental conditions: Mtb; mean of the measurements; read-out: DC50, Mean
property name: DC50 (µM)
Lab book: enter the figure in µM, no units written.

Solved cases below.
compound	DC50 / µM
CO[C@H](c1ccccc1)[C@@H]1NC(=O)[C@H](C)NC(=O)[C@H](C[C@@H](C)CO)N(C)C(=O)[C@H](Cc2cn(Cc3cn(CCOCCOCCOCCOCCn4cc(Cn5cc(C[C@H]6C(=O)N(C)[C@@H](C[C@@H](C)CO)C(=O)N[C@@H](C)C(=O)N[C@@H]([C@H](OC)c7ccccc7)C(=O)N[C@@H](C(C)C)C(=O)N(C)[C@@H](CC(C)C)C(=O)N[C@@H](C(C)C)C(=O)N6C)c6ccccc65)nn4)nn3)c3ccccc23)N(C)C(=O)[C@H](C(C)C)NC(=O)[C@H](CC(C)C)N(C)C(=O)[C@H](C(C)C)NC1=O	24.7
CO[C@H](c1ccccc1)[C@@H]1NC(=O)[C@H](C)NC(=O)[C@H](C[C@@H](C)CO)N(C)C(=O)[C@H](Cc2cn(Cc3cn(CCOCCn4cc(Cn5cc(C[C@@H]6NC(=O)[C@H](C(C)C)NC(=O)[C@H](CC(C)C)N(C)C(=O)[C@H](C(C)C)NC(=O)[C@H]([C@H](OC)c7ccccc7)NC(=O)[C@H](C)NC(=O)[C@H](C[C@@H](C)CO)N(C)C6=O)c6ccccc65)nn4)nn3)c3ccccc23)NC(=O)[C@H](C(C)C)NC(=O)[C@H](CC(C)C)N(C)C(=O)[C@H](C(C)C)NC1=O	5.8
CO[C@H](c1ccccc1)[C@@H]1NC(=O)[C@H](C)NC(=O)[C@H](C[C@@H](C)CO)N(C)C(=O)[C@H](Cc2cn(Cc3cn(CCCCCn4cc(Cn5cc(C[C@H]6C(=O)N(C)[C@@H](C[C@@H](C)CO)C(=O)N[C@@H](C)C(=O)N[C@@H]([C@H](OC)c7ccccc7)C(=O)N[C@@H](C(C)C)C(=O)N(C)[C@@H](CC(C)C)C(=O)N[C@@H](C(C)C)C(=O)N6C)c6ccccc65)nn4)nn3)c3ccccc23)N(C)C(=O)[C@H](C(C)C)NC(=O)[C@H](CC(C)C)N(C)C(=O)[C@H](C(C)C)NC1=O	23.7
CO[C@H](c1ccccc1)[C@@H]1NC(=O)[C@H](C)NC(=O)[C@H](C[C@@H](C)CO)N(C)C(=O)[C@H](Cc2cn(Cc3cn(CCCCCn4cc(Cn5cc(C[C@@H]6NC(=O)[C@H](C(C)C)NC(=O)[C@H](CC(C)C)N(C)C(=O)[C@H](C(C)C)NC(=O)[C@H]([C@H](OC)c7ccccc7)NC(=O)[C@H](C)NC(=O)[C@H](C[C@@H](C)CO)N(C)C6=O)c6ccccc65)nn4)nn3)c3ccccc23)NC(=O)[C@H](C(C)C)NC(=O)[C@H](CC(C)C)N(C)C(=O)[C@H](C(C)C)NC1=O	6.8
CO[C@H](c1ccccc1)[C@@H]1NC(=O)[C@H](C)NC(=O)[C@H](C[C@@H](C)CO)N(C)C(=O)[C@H](Cc2cn(C)c3ccccc23)NC(=O)[C@H](Cc2cn(CCOCCOCCn3cc(C[C@@H]4NC(=O)[C@H](CC(C)C)N(C)C(=O)[C@H](C(C)C)NC(=O)[C@H]([C@H](OC)c5ccccc5)NC(=O)[C@H](C)NC(=O)[C@H](C[C@@H](C)CO)N(C)C(=O)[C@H](Cc5cn(C)c6ccccc56)NC4=O)nn3)nn2)NC(=O)[C@H](CC(C)C)N(C)C(=O)[C@H](C(C)C)NC1=O	5.1
COC(c1ccccc1)C1NC(=O)C(C)NC(=O)C(CC(C)CO)N(C)C(=O)C(Cc2cn(CCCCn3cc(CC4NC(=O)C(C(C)C)NC(=O)C(CC(C)C)N(C)C(=O)C(C(C)C)NC(=O)C(C(OC)c5ccccc5)NC(=O)C(C)NC(=O)C(CC(C)CO)N(C)C4=O)c4ccccc43)c3ccccc23)NC(=O)C(C(C)C)NC(=O)C(CC(C)C)N(C)C(=O)C(C(C)C)NC1=O (stereo not shown)	10.7

# ---- query compound ----
-- ask I'd like to know its DC50. The compound in question is CO[C@H](c1ccccc1)[C@@H]1NC(=O)[C@H](C)NC(=O)[C@H](C[C@@H](C)CO)N(C)C(=O)[C@H](Cc2cn(C)c3ccccc23)N(C)C(=O)[C@H](Cc2cn(CCOCCOCCn3cc(C[C@@H]4NC(=O)[C@H](CC(C)C)N(C)C(=O)[C@H](C(C)C)NC(=O)[C@H]([C@H](OC)c5ccccc5)NC(=O)[C@H](C)NC(=O)[C@H](C[C@@H](C)CO)N(C)C(=O)[C@H](Cc5cn(C)c6ccccc56)N(C)C4=O)nn3)nn2)NC(=O)[C@H](CC(C)C)N(C)C(=O)[C@H](C(C)C)NC1=O
-- reply 8.6

// provenance: paper PMC10914731
